I'd be grateful if you could share measured composite z-score for these entries.
- targetOrSystem: Fibroblast growth factor 2 (Homo sapiens)
- protocol: FGF2 binders on small-molecule microarrays, primary screen, biochemical, small-molecule microarray, 635/667 nm fluorescence (AID 1133)
- testContext: small-molecule microarray binding, FGF2, fluorescence 635/667; higher = more signal

Which measured composite z-score value corresponds to "Cc1ccc(S[C@]2(C(=O)NCC(F)(F)F)CC(=O)N(Cc3ccccc3)[C@@H]2c2ccc(CO)cc2I)cc1" ?
-0.177

Next up: "CN(C)C(=O)[C@@]1(Cc2ccccc2CN=[N+]=[N-])N=C(c2ccc(OCCCO)cc2)O[C@H]1c1ccccc1CN=[N+]=[N-]"
-0.025

Next up: "CCCCO[C@H]1C[C@H]2C(I)=C[C@@H]1C(=O)[C@]21CO1"
0.129

Next up: CCC(CC)C(O)C1C=CC2C(=O)N(c3ccccc3)C(=O)C2N1Nc1ccc(C(C)C)cc1 (configuration not stated)
0.524

Next up: CC(C)(C)N1CC=CC23O[C@@H]4C=CCOC(=O)[C@@H]4[C@H]2C(=O)N(CCCCCCO)[C@@H]3C1=O (some centres not stated)
-0.877

Next up: "COCCOC(=O)N1C(=O)[C@@]2(c3cc(C#Cc4ccc(OC)cc4)ccc31)[C@H](C(=O)Nc1nc3ccccc3s1)[C@H]1C(=O)O[C@H](c3ccccc3)[C@H](c3ccccc3)N1[C@@H]2c1ccc(O)cc1"
1.09

Next up: "C=C(/C(=C/C[C@H](OC(C)=O)c1ccccc1OCCO)c1cc(C(=O)OC)ccc1OC)C(C)C"
0.428

====

- protocol: binders of probe aFGF10 on microarray, primary screen, stem cell growth factor project, biochemical, small-molecule microarray, fluorescence 635/667 (AID 1071);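 further: score merges 667 nm spot intensity and signal to noise from triplicate slides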
- testContext: higher = more signal
Parameter threshold = 0.6. Response is YES when composite z-score meets or exceeds it, else NO.

Confirm if composite z-score reported for the compound CN(C)c1ccc(C(O)C2C=CC3C(=O)N(c4ccccc4)C(=O)C3N2Nc2ccc([N+](=O)[O-])cc2)cc1 (centres undefined) is 0.6 or above.
NO

Next up: "COCCCNC(=O)[C@]1(CCS(=O)(=O)c2ccccc2)N=C(c2ccc(OCCCO)cc2)O[C@@H]1c1ccccc1CN=[N+]=[N-]"
YES

Next up: O=C1OCC=C[C@H]2OC34C=CCN(Cn5nnc6ccccc65)C(=O)[C@H]3N(CCCO)C(=O)[C@@H]4[C@@H]12 (some centres undefined)
NO

Next up: "[N-]=[N+]=Nc1ccccc1[C@H]1OC(c2ccc(OCCCO)cc2)=N[C@@]1(Cc1ccccc1)C(=O)N1CCCCC1"
YES

Next up: "CCCCO[C@H]1C[C@H]2C(I)=C[C@@H]1C(=O)[C@]21CO1"
NO

Next up: CC(C)C(CO)N1C(=O)[C@@H]2C3C(=O)OCCC/C=C\[C@H]3OC23C=CCN(C(C)(C)C)C(=O)[C@@H]13 (some centres undefined)
NO

Next up: "CCOC(=O)C[C@H]1[C@H](OC(=O)c2cc3ccccc3oc2=O)[C@@H](NC(=O)c2ccc(-c3ccccc3)cc2)c2cc(OCCCO)ccc2N1C(=O)c1ccccc1"
YES

Next up: "COC(=O)Cn1c(C(=O)N(C)C)cc2c1C[C@H]1CN(C(=O)c3ccccc3)[C@@](Cc3ccc(F)cc3)(C(=O)OC)[C@@H]21"
YES

Next up: "CCCNC(=O)[C@@H]1c2ccccc2C(=O)N(C(C)C)[C@H]1c1ccc(CO)cc1"
NO

Next up: CCOc1cc(C(O)C2C=CC3C(=O)N(c4ccccc4)C(=O)C3N2Nc2ccc(C#N)cc2)ccc1O (centres undefined)
NO

Next up: "COc1ccc([Si](C)(C)[C@@H]2[C@@H](CC(=O)N3Cc4ccccc4C[C@H]3CO)O[C@]3(C(=O)N(Cc4cccc(N5C(=O)c6cccc7cccc5c67)c4)c4ccccc43)[C@H]2C)cc1"
YES

Next up: "CCCCCCc1nc(-c2cc(C)c(OC)c(C)c2)c(C)c2c1[Si](C(C)C)(C(C)C)OC2"
NO

Next up: "O=C1O[C@H](c2ccccc2)[C@H](c2ccccc2)N2[C@H]1[C@@H](C(=O)Nc1nc3ccccc3s1)[C@]1(C(=O)Nc3ccccc31)[C@H]2c1ccc(OCCO)cc1"
NO

Next up: "CCCCCCc1nc(C2CC2)cc2c1[Si](C(C)C)(C(C)C)OC2"
NO

Next up: O=C1NC(=O)C2C1C=CC(C(O)c1ccco1)N2Nc1ccccn1 (centres undefined)
NO

Next up: Cc1cc(C)cc(N2C(=O)CSC2c2cccc([N+](=O)[O-])c2)c1 (centres undefined)
YES

Next up: OCC1CC(c2ccccc2)=NO1 (centres undefined)
NO

Next up: COc1cc2c(cc1O)C(C)N(Cc1ccc([N+](=O)[O-])o1)CC2 (centres undefined)
YES

Next up: CC(C)(C)N1CC=CC23O[C@@H]4C=CCOC(=O)[C@@H]4[C@H]2C(=O)N(CCCCCCO)[C@@H]3C1=O (some centres undefined)
NO

Next up: "COC(=O)[C@@]1(Cc2ccccc2)[C@H]2c3cc(C(=O)N(C)C)n(Cc4c(CO)[nH]cc(C)c4=O)c3C[C@H]2CN1C(=O)c1ccccc1"
NO

Next up: "C=CC[C@@]1(C(=O)N2CCOCC2)N=C(c2ccc(OCCCO)cc2)O[C@@H]1c1ccccc1CN=[N+]=[N-]"
YES

Next up: "O=C1O[C@@H](c2ccccc2)[C@@H](c2ccccc2)N2[C@@H](c3ccccc3OCCO)[C@]3(C(=O)Nc4ccc(C#CCCO)cc43)[C@@H](C(=O)N3CCCCCCC3)[C@H]12"
YES

Next up: "COC(=O)[C@@]1(Cc2ccc(OC)cc2)[C@@H]2C(=CC(=O)[C@H]2CC(=O)C(=O)N(C)C)CN1C(=O)c1ccccc1"
NO

Next up: "Cc1ccc(S[C@]2(C(=O)O)CC(=O)N(Cc3cc(C(F)(F)F)cc(C(F)(F)F)c3)[C@@H]2c2ccc(CO)cc2)cc1"
NO

Next up: "COc1cc2c(cc1OC)CN(C(=O)[C@@H]1[C@H]3C(=O)O[C@H](c4ccccc4)[C@H](c4ccccc4)N3[C@H](c3ccc(OCCO)cc3)[C@@]13C(=O)Nc1ccc(C#CC4(O)CCCCCC4)cc13)CC2"
YES

Next up: "O=C1O[C@H](c2ccccc2)[C@H](c2ccccc2)N2[C@H]1[C@@H](C(=O)NC[C@H](O)c1ccccc1)[C@]1(C(=O)Nc3ccc(C#CCCO)cc31)[C@H]2c1ccc(OCCO)cc1"
YES

Next up: "CC(C)C[C@@H]1NC(=O)[C@@H]2C[C@H](C(=O)NCCCCN(C)C)[C@H](c3cccc(OCCO)c3)N2C1=O"
NO

Next up: "CC(=O)NCCCC[C@@H]1NC(=O)[C@H]2C[C@@H](C(=O)NCCCC[N+](C)(C)C)[C@@H](c3cccc(OCCO)c3)N2C1=O"
YES

====

- Tested on: Neuregulin-1 EGF-like domain
- protocol: binders of neuregulin-1 EGF-like domain, primary screen, biochemical, small-molecule microarray, 635 nm fluorescence (AID 1081);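 further: binding of the protein to compounds printed on small-molecule microarray slides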
- testContext: small-molecule microarray binding, higher = more signal
measuredAttribute: composite z-score
Number only, no unit.

Which measured composite z-score value corresponds to "COC(=O)[C@@]1(Cc2ccccc2)[C@H]2c3cc(C(=O)N(C)C)n(CCc4ccc(O)c(OC)c4)c3C[C@H]2CN1C(=O)c1ccccc1" ?
0.781

Next up: "C=C[C@@H](COC(C)=O)N(C(=O)OC(C)(C)C)S(=O)(=O)c1ccc(Br)cc1"
1.01

Next up: "COc1ccc([Si](C)(C)[C@H]2[C@H](CC(=O)N(CCO)Cc3ccccc3)O[C@@]3(C(=O)N(Cc4cccc(N5CCOC5=O)c4)c4ccccc43)[C@@H]2C)cc1"
0.974

Next up: Cc1cc(C)c(C(O)C2C=CC3C(=O)NC(=O)C3N2Nc2ccc(Cl)cc2Cl)c(C)c1 (configuration not stated)
1.01

Next up: "COCCOC(=O)N1C(=O)[C@@]2(c3cc(C#CC4=CCCCC4)ccc31)[C@H](c1ccc(OCCO)cc1)N1[C@H](c3ccccc3)[C@H](c3ccccc3)OC(=O)[C@H]1[C@@H]2C(=O)NC[C@H](O)c1ccccc1"
1.15

Next up: "COCC1=C2[C@@H](CCc3ccccc3)OB(O)C[C@@H]2[C@@H]2C(=O)C=CC(=O)[C@@H]2C1"
0.952

Next up: "COC(=O)[C@@]1(Cc2ccc(F)cc2)[C@H]2c3cc(C(=O)N4CCCC4)n(CCN4CNCC4=O)c3C[C@H]2CN1C(=O)c1ccccc1"
1.35

====

- protocol: HepG2 liver cancer cell viability effects, profiling panel, resazurin fluorescence, 24 h, PK04 Diversity Set (AID 1172); further: test concentration not given here
- testContext: higher = more signal
Parameter threshold = -0.4. Response is Fulfilled when z-score meets or exceeds it, else Not fulfilled.

Confirm if z-score reported for the compound CC(C)(C)N1CC=CC23O[C@@H]4C=CCOC(=O)[C@@H]4[C@H]2C(=O)N(CCCCCCO)[C@@H]3C1=O (some centres not stated) is -0.4 or above.
Fulfilled

Next up: "CN(C)CCCNC(=O)[C@@]1(c2ccc([N+](=O)[O-])cc2)CC(=O)N(CC23CC4CC(CC(C4)C2)C3)[C@@H]1c1ccc(CO)cc1I"
Not fulfilled

Next up: "CN(C)C(=O)[C@]1(CCS(=O)(=O)c2ccccc2)N=C(c2ccc(OCCCO)cc2)O[C@@H]1c1ccccc1N=[N+]=[N-]"
Not fulfilled

Next up: "CCCCCCc1nc(C2CC2)cc2c1[Si](C(C)C)(C(C)C)O[C@H]2c1ccccc1"
Not fulfilled

Next up: O=C1C2C=CC(C(O)c3ccc(Br)cc3)N(Nc3ccccc3F)C2C(=O)N1c1ccccc1 (configuration not stated)
Fulfilled

Next up: "COc1ccc(-c2nc(-c3ccccc3)c3c(c2C)CO[Si]3(C(C)C)C(C)C)cn1"
Fulfilled
